Tested on: 697B cells, BCR-induced NF-kB luciferase reporter luminescence
assay comment: inhibitors of BCR-induced NF-kB activation, dose response, 697B cells, luciferase luminescence (AID 489023)
Activity calls are given as the source filed them. The rule behind the calls is not given here.
Outcomes: yes for active, no for inactive

query smiles	label value
CN1C(=O)c2cccc3c(S(=O)(=O)Nc4ccccc4F)ccc1c23	no
COc1ccc(NS(=O)(=O)c2ccc(-c3coc(C)n3)cc2)cc1OC	no
COc1ccc(C=C(C(C)=O)C(C)=O)cc1OC	no
c1ccc(CCNc2ncnc3ccccc23)cc1	no
COc1cccc(/C=C2/SC(=S)N(CCCC(=O)Nc3ccc(O)cc3)C2=O)c1	yes
CCOc1ccc(-c2nnc(SCC(=O)Nc3cc(C)on3)o2)cc1	yes
COc1ccc(C(=O)Nc2nnc(Cc3cccs3)s2)cc1OC	no
OCCN1CCN(C(=S)c2ccc(-c3ccccc3)cc2)CC1	yes
